Cited source: patent US20250313563A1

target: GSK3b (GST-full length GSK3b) (Homo sapiens (Human), UniProt P49841); test: GSK3b TR-FRET kinase assay; type: biochemical; details: 1 nM GSK3b, 2 μM ATP, 30 minute preincubation; geometric mean; read-out: GSK3-B TR-FRET BIOCHEMICAL (TR-FRET); GMean; IC50
Sequence (P49841 whole entry): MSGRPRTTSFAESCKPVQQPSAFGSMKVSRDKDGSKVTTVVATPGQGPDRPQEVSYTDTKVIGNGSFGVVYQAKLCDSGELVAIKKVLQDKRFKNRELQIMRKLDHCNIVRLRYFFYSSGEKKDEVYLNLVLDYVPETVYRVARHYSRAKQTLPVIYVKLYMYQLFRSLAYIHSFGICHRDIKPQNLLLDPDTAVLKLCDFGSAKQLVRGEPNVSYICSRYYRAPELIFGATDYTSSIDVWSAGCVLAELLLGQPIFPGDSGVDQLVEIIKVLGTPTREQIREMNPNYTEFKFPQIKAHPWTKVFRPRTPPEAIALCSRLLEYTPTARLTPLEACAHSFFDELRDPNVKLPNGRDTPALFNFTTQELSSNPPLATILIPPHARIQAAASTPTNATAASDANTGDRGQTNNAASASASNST
pIC50: −log10 of the molar value.
recorded-endpoint: pIC50

Query: Item CCC1(c2cccc(Br)c2)C2=C(CC(C)(C)C(F)C2=O)Nc2n[nH]cc21 (stereo not shown) [Compound 835315] has what recorded pIC50?
Result: ≥ 7.00

Query: Any idea what its pIC50 is? The molecule is CC[C@@]1(c2cccc(-c3cnn4c3CCCC4)c2)C2=C(CC(C)(C)NC2=O)Nc2n[nH]c(C)c21 [Compound 947817]
Result: ≥ 7.00

---

biological target: GSK3α (GST-full length GSK3α) (Homo sapiens (Human), UniProt P49840); assay: GSK3α TR-FRET kinase assay; format: biochemical; conditions: 1 nM GSK3α, 4 μM ATP, 30 minute preincubation, Table 16; read-out: GSK3-A TR-FRET BIOCHEMICAL (TR-FRET); IC50
Sequence (P49840 whole entry): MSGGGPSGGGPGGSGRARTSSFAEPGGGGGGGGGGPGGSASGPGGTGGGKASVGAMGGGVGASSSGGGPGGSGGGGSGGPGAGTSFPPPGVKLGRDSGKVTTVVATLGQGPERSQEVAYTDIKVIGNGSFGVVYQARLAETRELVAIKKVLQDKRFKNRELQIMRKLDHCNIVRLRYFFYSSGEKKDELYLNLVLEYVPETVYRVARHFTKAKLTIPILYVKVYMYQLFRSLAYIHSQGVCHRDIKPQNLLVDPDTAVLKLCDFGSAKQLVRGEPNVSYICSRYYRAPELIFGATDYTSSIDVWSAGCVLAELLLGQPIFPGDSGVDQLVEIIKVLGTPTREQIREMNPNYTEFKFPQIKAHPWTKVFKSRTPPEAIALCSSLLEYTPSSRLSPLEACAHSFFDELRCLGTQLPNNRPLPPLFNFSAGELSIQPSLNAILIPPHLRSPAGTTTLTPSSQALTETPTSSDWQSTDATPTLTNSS
Catalogue of IC50 values

Recorded results for 5 compounds are shown here.
1. CC[C@]1(c2cccc(N(C)c3ncccn3)c2)C2=C(CC(C)(C)NC2=O)Nc2n[nH]c(Cl)c21: > 5000 nM
2. CCC1(c2cccc(N(C)c3cnn(C)c3)c2)C2=C(CC(C)(C)CC2=O)Nc2n[nH]cc21 (stereo not shown): 100 to 1000 nM
3. CCC1(c2cccc(C(F)(F)F)c2)C2=C(CCC2=O)Nc2n[nH]cc21 (stereo not shown): 100 to 1000 nM
4. CCC1(c2cccc(C(F)(F)F)c2)C2=C(CCN(c3ccsc3)C2=O)Nc2n[nH]cc21 (stereo not shown): ≤ 100 nM
5. C[C@@H]1C[C@]2(CCO1)C1=C(CC(C)(C)CC1=O)Nc1n[nH]cc12: 100 to 1000 nM

Query: Data request, read-out IC50, for `CC[C@@]1(c2cccc(-c3ccnc(C)c3)c2)C2=C(CC(C)(C)NC2=O)Nc2n[nH]c(Cl)c21`
Result: ≤ 100 nM

Query: For `CC[C@@]1(c2cccc(C(F)(F)F)c2)C2=C(CCN(CCOC)C2=O)Nc2n[nH]cc21` , what is its reported IC50?
Result: 100 to 1000 nM

---

molecular target: GSK3b (GST-full length GSK3b) (Homo sapiens (Human), UniProt P49841); assay: GSK3b TR-FRET kinase assay; format: biochemical; settings: 1 nM GSK3b, 2 μM ATP, 30 minute preincubation; geometric mean; read-out: GSK3-B TR-FRET BIOCHEMICAL (TR-FRET); GMean; IC50
pIC50: −log10 of the molar value.
recorded-endpoint: pIC50

Worked examples follow.
1. CCC1(c2cccc(-c3cnn(C)c3)c2)C2=C(CC(C)CC2=O)Nc2n[nH]cc21 (stereo not drawn) [Compound 823726]: < 5.30
2. CC[C@]1(c2ccccc2)C2=C(C[C@@H](c3ccccc3)CC2=O)Nc2n[nH]cc21: < 5.30

Query: Find the recorded pIC50 belonging to CCC1(c2cccc(-c3ccnc(C)c3)c2)C2=C(CC3(CCOC3)NC2=O)Nc2n[nH]cc21 (stereo not drawn) and report it.
Result: < 5.30

Query: Report pIC50 for CCC1(c2cccc(-c3ccnc4cc(OC)ccc34)c2)C2=C(CC(C)(C)NC2=O)Nc2n[nH]cc21 (stereo not drawn) [Compound 948649] please.
Result: < 5.30

Query: Look up pIC50 for this compound: `CC[C@]1(c2cccc(N(C)C(C)=O)c2)C2=C(CC(C)(C)CC2=O)Nc2n[nH]cc21`
Result: < 5.30

Query: Data request, read-out pIC50, for CCC1(c2cccc(C(F)(F)F)c2)C2=C(CC3(CCCC3)CC2=O)Nc2n[nH]cc21 (stereo not drawn)
Result: ≥ 7.00

Query: Name the reported pIC50 value associated with the compound `C[C@@H]1CC(=O)C2=C(C1)Nc1n[nH]cc1[C@]2(C)c1ccccc1`
Result: < 5.30

Query: Dear colleague, I am looking for the recorded pIC50 of the following compound: `CC[C@]1(c2cccc(C(F)F)c2)C2=C(CC(C)(C)NC2=O)Nc2n[nH]cc21`
Result: 6.00 to 7.00

Query: Which measured pIC50 value corresponds to `CC[C@@]1(c2cccc(-c3ccnc4c(Cl)cccc34)c2)C2=C(CC(C)(C)NC2=O)Nc2n[nH]cc21` ?
Result: < 5.30

Query: Quick check: pIC50 of CCC1(c2cccc(-c3ccncc3C)c2)C2=C(CC3(CCOC3)NC2=O)Nc2n[nH]cc21 (stereo not drawn) ?
Result: < 5.30

Query: Item under review: `CC[C@]1(c2cccc(-c3ccnc(C)c3C)c2)C2=C(CC(C)(C)NC2=O)Nc2n[nH]cc21` . Reported pIC50?
Result: 6.00 to 7.00

Query: What pIC50 value was documented for this compound, CCC1(c2cccc(N3CCOCC3)c2)C2=C(CC(C)(C)NC2=O)Nc2n[nH]c(C)c21 (stereo not drawn) ?
Result: 6.00 to 7.00

Query: Please look up its pIC50: CCC1(c2cccc(S(=O)(=O)CC3CC3)c2)C2=C(CC(C)(C)NC2=O)Nc2n[nH]cc21 (stereo not drawn)
Result: 6.00 to 7.00

Query: Return reported pIC50; argument: CCC1(c2cccc(-c3ccnc4nc(C)ccc34)c2)C2=C(CC(C)(C)NC2=O)Nc2n[nH]cc21 (stereo not drawn)
Result: < 5.30

Query: For the compound CC[C@]1(c2cccc(N(C)c3ncccn3)c2)C2=C(CC(C)(C)NC2=O)Nc2n[nH]cc21 [Compound 949179] , what pIC50 is on record?
Result: < 5.30

---

molecular target: GSK3b (GST-full length GSK3b) (Homo sapiens (Human), UniProt P49841); experiment: GSK3b TR-FRET kinase assay; assay type: biochemical; conditions: 1 nM GSK3b, 2 μM ATP, 30 minute preincubation, Table 16; read-out: GSK3-B TR-FRET BIOCHEMICAL (TR-FRET); IC50
Overview of recorded IC50 for various molecules

Observe how each entry below is paired with its result.
1. CCCS(=O)(=O)c1cccc(C2(CC)C3=C(CC(C)(C)CC3=O)Nc3n[nH]cc32)c1 (stereo not drawn): ≤ 100 nM
2. CCC1(c2cccc(C(F)(F)F)c2)C2=C(CCN(c3cccs3)C2=O)Nc2n[nH]cc21 (stereo not drawn): 100 to 1000 nM
3. CCC1(c2cccc(-c3ccnc(N(C)C)c3)c2)C2=C(CC(C)(C)CC2=O)Nc2n[nH]c(C)c21 (stereo not drawn): 100 to 1000 nM

Query: Record request: IC50 value, item `CC[C@@]1(c2cccc(-c3cnn4ccncc34)c2)C2=C(CC(C)(C)NC2=O)Nc2n[nH]cc21`
Result: > 5000 nM

Query: Fill blank: measured IC50 of the molecule CCC1(c2cccc(Br)c2)C2=C(CC(C)(C)C2=O)Nc2n[nH]cc21 (stereo not drawn) is ____.
Result: 1000 to 5000 nM

Query: Which IC50 is listed for CCC1(c2cccc(-c3c(C)nn(C)c3C)c2)C2=C(CC(C)(C)CC2=O)Nc2n[nH]cc21 (stereo not drawn) [Compound 883851] ?
Result: ≤ 100 nM

Query: Data request, read-out IC50, for CCC1(c2cccc(-c3ccnc(C(F)(F)F)c3)c2)C2=C(CC(C)(C)CC2=O)Nc2n[nH]c(C)c21 (stereo not drawn) [Compound 913049]
Result: > 5000 nM

Query: Please give the measured IC50 for this molecule: CCC1(c2cccc(-c3ccnc(C)c3)c2)C2=C(CC(C)(C)NC2=O)Nc2n[nH]c(C(F)F)c21 (stereo not drawn)
Result: 100 to 1000 nM

---

target: GSK3b (GST-full length GSK3b) (Homo sapiens (Human), UniProt P49841); experiment: GSK3b TR-FRET kinase assay; assay type: biochemical; settings: 1 nM GSK3b, 2 μM ATP, 30 minute preincubation; geometric mean; read-out: GSK3-B TR-FRET BIOCHEMICAL (TR-FRET); GMean; IC50
pIC50: −log10 of the molar value.
recorded-endpoint: pIC50

See these solved cases before continuing.
1. CC1(C)CC(=O)C2=C(C1)Nc1n[nH]cc1C2(C)c1cc(Cl)ccc1F (stereo not drawn) [Compound 810377]: 5.30 to 6.00
2. CC1(C)CC(=O)C2=C(C1)Nc1n[nH]c(Br)c1C21CCNc2ccccc21 (stereo not drawn) [Compound 810460]: < 5.30
3. CCC1(c2cccc(CN(C)C(C)=O)c2)C2=C(CC(C)(C)CC2=O)Nc2n[nH]cc21 (stereo not drawn) [Compound 865194]: 5.30 to 6.00
4. CCC1(c2cccc(-c3cnn4c3CCCC4)c2)C2=C(CC(C)(C)NC2=O)Nc2n[nH]c(C(F)(F)F)c21 (stereo not drawn) [Compound 947801]: ≥ 7.00
5. CCC1(c2cccc(-c3c(F)cncc3F)c2)C2=C(CC(C)(C)NC2=O)Nc2n[nH]cc21 (stereo not drawn) [Compound 948514]: < 5.30
6. CCc1ncc(S(=O)(=O)N2CCC3(CC2)C2=C(CC(C)(C)NC2=O)Nc2n[nH]cc23)s1 [Compound 947837]: ≥ 7.00

Query: Recorded pIC50 of CC1(C)CC(=O)C2=C(C1)Nc1n[nH]cc1C2(c1ccccc1)c1ccccc1 [Compound 789461] , please.
Result: < 5.30

Query: Requested read-out: pIC50. Entry: CC[C@@]1(c2ccccc2)C2=C(C[C@H](c3ccccc3)CC2=O)Nc2n[nH]cc21 [Compound 791263]
Result: < 5.30

Query: # input molecule: CCC1(c2cccc(COC)c2)C2=C(CC(C)(C)CC2=O)Nc2n[nH]cc21 (stereo not drawn) [Compound 810362] ; wanted: its pIC50
Result: < 5.30

Query: What pIC50 value was documented for this molecule, CC[C@]1(c2cccc(N3CCOCC3)c2)C2=C(CC(C)(C)NC2=O)Nc2n[nH]c(C(F)(F)F)c21 [Compound 949000] ?
Result: 6.00 to 7.00

Query: // returns reported pIC50 for input CC[C@@]1(c2ccccc2)C2=C(CC3(CCC3)CC2=O)Nc2n[nH]cc21 [Compound 819573]
Result: 6.00 to 7.00

Query: What pIC50 value was documented for this molecule, CCC1(c2cccc(-c3ccnc(C)c3)c2)C2=C(CC(C)(C)NC2=O)Nc2n[nH]c(C(F)F)c21 (stereo not drawn) [Compound 949169] ?
Result: ≥ 7.00

Query: Which value of pIC50 has been reported for CCC1(c2cccc(N3CCCC3)c2)C2=C(CC(C)(C)CC2=O)Nc2n[nH]c(C(F)(F)F)c21 (stereo not drawn) [Compound 819575] in the records?
Result: ≥ 7.00

Query: Could you share which pIC50 value was measured for CC[C@@]1(c2cccc(-c3cnn(C(C)(C)C)c3)c2)C2=C(CC(C)(C)NC2=O)Nc2n[nH]cc21 [Compound 949107] ?
Result: < 5.30

Query: Consider the molecule CC[C@@]1(c2ccccc2)C2=C(CC(C)(C)[C@@H](F)C2=O)Nc2n[nH]cc21 [Compound 826768] and give its measured pIC50.
Result: 6.00 to 7.00
